This collection of values is drawn from paper PMC8617031.

- ASSAY_PROCEDURE: Viability (MTS) of 293T cells
- Type: cell-based, human
- CONDITION_CONTEXT: human, 293T cell viability, MTS absorbance 490 as percent of untreated control, single replicate well, 1 uM, replicate well, normalised to own plate
VALUE_TYPE: viability at 72 h, 1 µM (%)
Value expressed in %; do not type the unit.

Challenge: Param item = "CC1(C)CCC(c2ccc(Cl)cc2)=C(CN2CCN(c3ccc(C(=O)NS(=O)(=O)c4ccc(N[C@H](CCN5CCOCC5)CSc5ccccc5)c(S(=O)(=O)C(F)(F)F)c4)cc3)CC2)C1" ; retrieve measured viability at 72 h, 1 µM.
Response given: 93.3
